- Test system: MDA-MB-435 melanoma
- assayDetails: NCI-60 one-dose screen, 48 h
- conditionLabel: 10 µM unless noted
Compounds without any hit were thinned out: in the full panel of roughly 83,000, 20% have a hit. Active and inactive are the calls of the source. How the source made its calls: active means growth percent below 10; inactive means the rest.
Answer with one of the outcomes given here: yes (1) = active, no (0) = inactive

Ask | Field: outcome | Entry: "COc1cnc2c(c1)C(=O)c1c-2n(CCCNC2=NCCS2)c(=O)c2cc(F)ccc12"
Reply | no (0)

Ask | State the result this test recorded for "COc1cc(/C=C/C(=O)c2c(C)n([O-])c3ccccc3[n+]2=O)cc(OC)c1OC" .
Reply | no (0)

Ask | What did this assay record as the result for "CNNc1ncnc2c1cnn2-c1ccc(S(N)(=O)=O)cc1" ?
Reply | no (0)

Ask | Called result for "C(=C1c2ccccc2-c2ccccc21)c1ccccn1"
Reply | yes (1)

Ask | Check the results log: what was the call for "COc1ccc(CC(=O)Nc2nn3c(-c4cc(C(F)(F)F)cc(C(F)(F)F)c4)nnc3s2)cc1" ?
Reply | no (0)

Ask | Outcome? "CCCCCCCCCCOC(C)=O"
Reply | no (0)

Ask | What outcome does the record of this test show for "O=C1CNc2cc(Cl)ccc2N1" ?
Reply | no (0)

Ask | How was "O=C(Oc1cccc2ccccc12)c1ccccc1C(=O)c1ccccc1" classified in this test?
Reply | no (0)
